- System: NCI-H322M
- method summary: NCI drug screen, NCI-H322M
- Format: cell-based, human
- condition set: NCI-H322M (Non-Small Cell Lung Cancer); 1.00E−5 Molar
Measured Growth Percent, listed per entry.
observable: Growth Percent (%)

[
  {
    "molecule": "Cc1ccc(C(=O)Nc2c(NC(=O)CCl)ccc3c2C(=O)c2ccccc2C3=O)cc1 [CC-12]",
    "reported": 95.05
  },
  {
    "molecule": "Cc1ccc(C(=O)Nc2c(NC(=O)CN3CCCC3)ccc3c2C(=O)c2ccccc2C3=O)cc1 [CC-38]",
    "reported": 82.50
  },
  {
    "molecule": "O=C(CCl)Nc1ccc2c(c1NC(=O)Cc1ccccc1)C(=O)c1ccccc1C2=O [CC-23]",
    "reported": 104.38
  },
  {
    "molecule": "Cc1ccc(C(=O)Nc2c(NC(=O)CN3CCN(C)CC3)ccc3c2C(=O)c2ccccc2C3=O)cc1 [CC-43]",
    "reported": 72.60
  },
  {
    "molecule": "Cc1ccc(C(=O)Nc2ccc3c(c2NC(=O)c2ccc(C)cc2)C(=O)c2ccccc2C3=O)cc1 [CC-04]",
    "reported": 97.74
  }
]

----------
- method summary: MTT assay, PhTERT-SEAP (H1299)
- Assay type: cell-based, human
- condition set: human, H1299 cells carrying the PhTERT-SEAP reporter; Conc. 100 μM; PhTERT-SEAP (H1299); read-out: Relative MTT viability (%) (converted)

[
  {
    "smiles notation": "Cc1ccc(C(=O)Nc2c(NC(=O)CN(C)CCc3ccccn3)ccc3c2C(=O)c2ccccc2C3=O)cc1",
    "viability at 100 μM [%]": 22
  },
  {
    "smiles notation": "O=C(CCl)Nc1ccc2c(c1NC(=O)c1ccno1)C(=O)c1ccccc1C2=O",
    "viability at 100 μM [%]": 0.11
  },
  {
    "smiles notation": "O=C(CN1CCN(c2ccccc2)CC1)Nc1ccc2c(c1NC(=O)c1ccccc1)C(=O)c1ccccc1C2=O",
    "viability at 100 μM [%]": 88
  },
  {
    "smiles notation": "O=C(CCl)Nc1ccc2c(c1NC(=O)CCCCl)C(=O)c1ccccc1C2=O",
    "viability at 100 μM [%]": 62
  },
  {
    "smiles notation": "Cc1ccc(C(=O)Nc2c(NC(=O)CN3CCN(c4ccccc4F)CC3)ccc3c2C(=O)c2ccccc2C3=O)cc1",
    "viability at 100 μM [%]": 40.8
  },
  {
    "smiles notation": "O=C(CCl)Nc1ccc2c(c1NC(=O)CCCl)C(=O)c1ccccc1C2=O",
    "viability at 100 μM [%]": 19
  },
  {
    "smiles notation": "Cc1ccc(C(=O)Nc2c(NC(=O)CN(C)CC3OCCO3)ccc3c2C(=O)c2ccccc2C3=O)cc1",
    "viability at 100 μM [%]": 3.78
  },
  {
    "smiles notation": "Cc1ccc(C(=O)Nc2c(NC(=O)CN3CCCC3)ccc3c2C(=O)c2ccccc2C3=O)cc1",
    "viability at 100 μM [%]": 5.05
  },
  {
    "smiles notation": "Cc1ccc(C(=O)Nc2ccc3c(c2NC(=O)c2ccc(C)cc2)C(=O)c2ccccc2C3=O)cc1",
    "viability at 100 μM [%]": 62
  },
  {
    "smiles notation": "Cc1ccc(C(=O)Nc2c(NC(=O)CN3CCC4(CC3)OCCO4)ccc3c2C(=O)c2ccccc2C3=O)cc1",
    "viability at 100 μM [%]": 16.8
  },
  {
    "smiles notation": "O=C(CN1CCN(c2ccccc2F)CC1)Nc1ccc2c(c1NC(=O)c1ccccc1)C(=O)c1ccccc1C2=O",
    "viability at 100 μM [%]": 27.8
  },
  {
    "smiles notation": "O=C(CCl)Nc1ccc2c(c1NC(=O)c1ccc(Cl)cc1)C(=O)c1ccccc1C2=O",
    "viability at 100 μM [%]": 4.25
  },
  {
    "smiles notation": "O=C(CCl)Nc1ccc2c(c1NC(=O)Cc1ccc(F)cc1)C(=O)c1ccccc1C2=O",
    "viability at 100 μM [%]": 6.17
  },
  {
    "smiles notation": "Cc1ccc(C(=O)Nc2c(NC(=O)CN3CCN(c4ccccc4C#N)CC3)ccc3c2C(=O)c2ccccc2C3=O)cc1",
    "viability at 100 μM [%]": 48.2
  },
  {
    "smiles notation": "Cc1ccc(C(=O)Nc2c(NC(=O)CN3CCN(c4ncccn4)CC3)ccc3c2C(=O)c2ccccc2C3=O)cc1",
    "viability at 100 μM [%]": 59
  },
  {
    "smiles notation": "Cc1ccc(C(=O)Nc2c(NC(=O)CN3CCOCC3)ccc3c2C(=O)c2ccccc2C3=O)cc1",
    "viability at 100 μM [%]": 15.5
  },
  {
    "smiles notation": "Cc1ccc(C(=O)Nc2c(NC(=O)CN3CCN(c4ccccn4)CC3)ccc3c2C(=O)c2ccccc2C3=O)cc1",
    "viability at 100 μM [%]": 6.46
  },
  {
    "smiles notation": "O=C(CCl)Nc1ccc2c(c1NC(=O)Cc1ccccc1)C(=O)c1ccccc1C2=O",
    "viability at 100 μM [%]": 3.98
  },
  {
    "smiles notation": "O=C(CCCl)Nc1ccc2c(c1NC(=O)CCCl)C(=O)c1ccccc1C2=O",
    "viability at 100 μM [%]": 5.38
  },
  {
    "smiles notation": "O=C(CCCCl)Nc1ccc2c(c1NC(=O)CCCCl)C(=O)c1ccccc1C2=O",
    "viability at 100 μM [%]": 19
  },
  {
    "smiles notation": "Cc1ccc(C(=O)Nc2c(NC(=O)CN3CCN(C)CC3)ccc3c2C(=O)c2ccccc2C3=O)cc1",
    "viability at 100 μM [%]": 8.11
  },
  {
    "smiles notation": "O=C(CCl)Nc1ccc2c(c1NC(=O)COc1ccccc1)C(=O)c1ccccc1C2=O",
    "viability at 100 μM [%]": 4.86
  },
  {
    "smiles notation": "O=C(CCl)Nc1ccc2c(c1NC(=O)c1ccccc1)C(=O)c1ccccc1C2=O",
    "viability at 100 μM [%]": 5.38
  },
  {
    "smiles notation": "Cc1ccc(C(=O)Nc2c(NC(=O)CN3CCSCC3)ccc3c2C(=O)c2ccccc2C3=O)cc1",
    "viability at 100 μM [%]": 20
  },
  {
    "smiles notation": "Cc1ccc(C(=O)Nc2c(NC(=O)CN3CCCCC3)ccc3c2C(=O)c2ccccc2C3=O)cc1",
    "viability at 100 μM [%]": 10.8
  },
  {
    "smiles notation": "COc1ccccc1N1CCN(CC(=O)Nc2ccc3c(c2NC(=O)c2ccc(C)cc2)C(=O)c2ccccc2C3=O)CC1",
    "viability at 100 μM [%]": 22.7
  },
  {
    "smiles notation": "Cc1ccc(C(=O)Nc2c(NC(=O)CN3CCN(c4ccccc4)CC3)ccc3c2C(=O)c2ccccc2C3=O)cc1",
    "viability at 100 μM [%]": 23.2
  },
  {
    "smiles notation": "O=C(CCl)Nc1ccc2c(c1NC(=O)c1cccc(C(F)(F)F)c1)C(=O)c1ccccc1C2=O",
    "viability at 100 μM [%]": 3.37
  }
]

----------
- Tested on: KM12
- method summary: NCI drug screen, KM12
- Assay type: cell-based, human
- condition set: KM12 (Colon Cancer); 1.00E−5 Molar
- Experimental: In brief, cellular protein levels were determined after 48 hours of drug exposure by sulforhodamine B colorimetry. Through the use of a time 0 cell control, the cell growth can be determined for each cell line thus allowing calculations of the 50% growth inhibitory concentration (GI50), the total growth inhibition (TGI), and the 50% lethal concentration (LC50). […]
Measured Growth Percent, listed per entry.

[
  {
    "smiles notation": "Cc1ccc(C(=O)Nc2ccc3c(c2NC(=O)c2ccc(C)cc2)C(=O)c2ccccc2C3=O)cc1",
    "unit spec": "%",
    "Growth Percent": 94.21
  },
  {
    "smiles notation": "Cc1ccc(C(=O)Nc2c(NC(=O)CN3CCN(C)CC3)ccc3c2C(=O)c2ccccc2C3=O)cc1",
    "unit spec": "%",
    "Growth Percent": 44.05
  },
  {
    "smiles notation": "Cc1ccc(C(=O)Nc2c(NC(=O)CN3CCCC3)ccc3c2C(=O)c2ccccc2C3=O)cc1",
    "unit spec": "%",
    "Growth Percent": 51.05
  },
  {
    "smiles notation": "Cc1ccc(C(=O)Nc2c(NC(=O)CCl)ccc3c2C(=O)c2ccccc2C3=O)cc1",
    "unit spec": "%",
    "Growth Percent": "−19.53"
  },
  {
    "smiles notation": "O=C(CCl)Nc1ccc2c(c1NC(=O)Cc1ccccc1)C(=O)c1ccccc1C2=O",
    "unit spec": "%",
    "Growth Percent": 80.59
  }
]
